# system.under.test: VPS34 (Homo sapiens)
# Construct: GST (N); host or cells: SF9 insect cells (baculovirus)
# Sequence (Q8NEB9 whole entry): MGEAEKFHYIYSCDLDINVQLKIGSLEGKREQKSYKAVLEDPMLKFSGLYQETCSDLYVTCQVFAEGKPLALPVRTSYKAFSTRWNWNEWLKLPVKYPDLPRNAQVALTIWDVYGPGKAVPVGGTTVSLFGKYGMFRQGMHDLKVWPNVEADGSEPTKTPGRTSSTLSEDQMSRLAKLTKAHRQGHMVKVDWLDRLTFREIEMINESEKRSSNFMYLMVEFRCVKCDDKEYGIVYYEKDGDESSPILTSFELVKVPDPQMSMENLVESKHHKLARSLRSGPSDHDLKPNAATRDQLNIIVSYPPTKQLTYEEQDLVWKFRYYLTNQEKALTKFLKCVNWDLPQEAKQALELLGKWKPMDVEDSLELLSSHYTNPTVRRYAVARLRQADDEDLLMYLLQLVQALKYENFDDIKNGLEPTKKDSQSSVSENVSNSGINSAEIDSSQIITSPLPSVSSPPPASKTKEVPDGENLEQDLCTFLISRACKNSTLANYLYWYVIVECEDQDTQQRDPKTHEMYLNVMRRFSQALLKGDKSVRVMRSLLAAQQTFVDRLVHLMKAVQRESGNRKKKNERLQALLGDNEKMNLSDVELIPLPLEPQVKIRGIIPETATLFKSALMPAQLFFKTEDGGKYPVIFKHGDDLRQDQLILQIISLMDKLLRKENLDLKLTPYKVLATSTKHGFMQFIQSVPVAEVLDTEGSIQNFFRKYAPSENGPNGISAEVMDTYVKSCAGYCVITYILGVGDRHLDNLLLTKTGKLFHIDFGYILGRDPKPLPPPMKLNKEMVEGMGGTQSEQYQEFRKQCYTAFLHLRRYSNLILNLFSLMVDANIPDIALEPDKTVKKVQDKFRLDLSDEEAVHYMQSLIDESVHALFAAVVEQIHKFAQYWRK
# method.summary: Human VPS34 enzyme assay (Adapta Universal Kinase Assay)
# Type: biochemical
# run.conditions: at 1.11 μM
observation.type: VPS34 % ihn (%)

# VPS34 % ihn lookup, item O=C1NCC(c2ccc(Cl)cc2)c2cc(-c3ccncc3)sc21 (centres unmarked) [Compound 30]
−0.200

I = O=C1CCC(O)C(c2ccc(Cl)cc2)c2cc(-c3ccncc3)sc21 (centres unmarked) [Compound 129]
II = O=C1CCC(O)C(c2ccc(Cl)cc2)c2cc(-c3ccncc3)sc21 (centres unmarked) [Compound 210]
III = O=C1CC(c2ccc(Cl)cc2)c2cc(N3CCOCC3)sc21 (centres unmarked) [Compound 145]
IV = NC(=O)[C@@H]1NC(=O)c2sc(N3CCOCC3)cc2[C@H]1c1ccc(Cl)cc1
Rank entries according to their VPS34 % ihn, from the largest number down. Give the labels in the order requested.
IV, II, III, I

----------
# system.under.test: PI3Kgamma (Homo sapiens, UniProt P48736)
# Construct: His (N); host or cells: SF9 insect cells (baculovirus)
# Sequence (P48736 whole entry): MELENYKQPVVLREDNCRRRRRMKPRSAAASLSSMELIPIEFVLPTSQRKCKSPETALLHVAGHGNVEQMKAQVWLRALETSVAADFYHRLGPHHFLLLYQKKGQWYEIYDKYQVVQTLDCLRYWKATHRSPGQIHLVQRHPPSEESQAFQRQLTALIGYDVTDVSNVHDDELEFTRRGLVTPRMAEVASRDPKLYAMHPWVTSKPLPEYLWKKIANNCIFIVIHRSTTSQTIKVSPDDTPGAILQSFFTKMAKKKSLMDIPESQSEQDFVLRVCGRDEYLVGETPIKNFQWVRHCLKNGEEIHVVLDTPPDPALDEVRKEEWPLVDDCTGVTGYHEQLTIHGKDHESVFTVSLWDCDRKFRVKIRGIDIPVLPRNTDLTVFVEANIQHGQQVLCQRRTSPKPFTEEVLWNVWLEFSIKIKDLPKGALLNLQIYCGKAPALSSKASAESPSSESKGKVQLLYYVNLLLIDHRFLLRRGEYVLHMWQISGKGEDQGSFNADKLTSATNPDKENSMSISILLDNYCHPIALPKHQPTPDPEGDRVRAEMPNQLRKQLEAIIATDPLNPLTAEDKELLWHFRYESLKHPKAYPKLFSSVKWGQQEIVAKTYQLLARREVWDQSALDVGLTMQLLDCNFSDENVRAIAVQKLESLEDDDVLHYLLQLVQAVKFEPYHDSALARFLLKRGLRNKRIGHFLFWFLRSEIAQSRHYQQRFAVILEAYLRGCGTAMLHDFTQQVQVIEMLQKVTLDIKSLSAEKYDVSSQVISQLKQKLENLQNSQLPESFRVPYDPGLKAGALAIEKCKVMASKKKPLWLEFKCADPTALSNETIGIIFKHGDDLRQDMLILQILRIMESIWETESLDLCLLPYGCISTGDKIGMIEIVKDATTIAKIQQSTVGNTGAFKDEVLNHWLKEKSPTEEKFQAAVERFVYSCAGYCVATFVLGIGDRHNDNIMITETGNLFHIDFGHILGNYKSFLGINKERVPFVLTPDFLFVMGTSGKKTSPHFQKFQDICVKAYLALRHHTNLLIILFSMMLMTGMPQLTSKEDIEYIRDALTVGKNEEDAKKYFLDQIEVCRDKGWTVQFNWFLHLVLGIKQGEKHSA
# method.summary: Human PI3K gamma enzyme assay (HTRF, as for PI3K alpha)
# Type: biochemical
# run.conditions: at 1.11 μM
observation.type: PI3Kgamma % inh (%)

As a guide, the following entries are already answered.
Recorded PI3Kgamma % inh of O=C1NCCC(c2ccc(Cl)cc2)c2cc(-c3ccncc3)sc21 (single isomer, unassigned) [Compound 25] , please.
4.500

Given the molecule "NC(=O)[C@@H]1NC(=O)c2sc(N3CCOCC3)cc2[C@H]1c1ccc(Cl)cc1" , what is its reported PI3Kgamma % inh?
36.62

Could you tell me which PI3Kgamma % inh is on file for O=S1(=O)NCC(O)(c2ccc(Cl)cc2)c2cc(-c3ccncc3)sc21 (single isomer, unassigned) [Compound 9] ?
3.300

# lookup: PI3Kgamma % inh of O=C1CCC(O)C(c2ccc(Cl)cc2)c2cc(-c3ccncc3)sc21 (stereo not shown)
3.89

// query PI3Kgamma % inh value for entry O=C1CC(c2ccc(Cl)cc2)c2cc(N3CCOCC3)sc21 (stereo not shown) [Compound 28]
23.550

P = O=C1NCCC(c2ccc(Cl)cc2)c2cc(-c3ccncc3)sc21 (single isomer, unassigned) [Compound 21]
Q = CCCOC(=O)[C@@H]1NC(=O)c2sc(N3CCOCC3)cc2[C@H]1c1ccc(Cl)cc1
R = O=C1NCC(c2ccc(Cl)cc2)c2cc(-c3ccncc3)sc21 (stereo not shown)
S = O=C1CC(c2ccc(Cl)cc2)c2cc(N3CCOCC3)sc21 (stereo not shown) [Compound 145]
Ascending sort, PI3Kgamma % inh. Please list the labels according to the requested order.
Q, R, P, S

----------
# system.under.test: PI3Kbeta (Homo sapiens, UniProt P42338)
# Construct: His (N); host or cells: SF9 insect cells (baculovirus)
# Sequence (P42338 whole entry): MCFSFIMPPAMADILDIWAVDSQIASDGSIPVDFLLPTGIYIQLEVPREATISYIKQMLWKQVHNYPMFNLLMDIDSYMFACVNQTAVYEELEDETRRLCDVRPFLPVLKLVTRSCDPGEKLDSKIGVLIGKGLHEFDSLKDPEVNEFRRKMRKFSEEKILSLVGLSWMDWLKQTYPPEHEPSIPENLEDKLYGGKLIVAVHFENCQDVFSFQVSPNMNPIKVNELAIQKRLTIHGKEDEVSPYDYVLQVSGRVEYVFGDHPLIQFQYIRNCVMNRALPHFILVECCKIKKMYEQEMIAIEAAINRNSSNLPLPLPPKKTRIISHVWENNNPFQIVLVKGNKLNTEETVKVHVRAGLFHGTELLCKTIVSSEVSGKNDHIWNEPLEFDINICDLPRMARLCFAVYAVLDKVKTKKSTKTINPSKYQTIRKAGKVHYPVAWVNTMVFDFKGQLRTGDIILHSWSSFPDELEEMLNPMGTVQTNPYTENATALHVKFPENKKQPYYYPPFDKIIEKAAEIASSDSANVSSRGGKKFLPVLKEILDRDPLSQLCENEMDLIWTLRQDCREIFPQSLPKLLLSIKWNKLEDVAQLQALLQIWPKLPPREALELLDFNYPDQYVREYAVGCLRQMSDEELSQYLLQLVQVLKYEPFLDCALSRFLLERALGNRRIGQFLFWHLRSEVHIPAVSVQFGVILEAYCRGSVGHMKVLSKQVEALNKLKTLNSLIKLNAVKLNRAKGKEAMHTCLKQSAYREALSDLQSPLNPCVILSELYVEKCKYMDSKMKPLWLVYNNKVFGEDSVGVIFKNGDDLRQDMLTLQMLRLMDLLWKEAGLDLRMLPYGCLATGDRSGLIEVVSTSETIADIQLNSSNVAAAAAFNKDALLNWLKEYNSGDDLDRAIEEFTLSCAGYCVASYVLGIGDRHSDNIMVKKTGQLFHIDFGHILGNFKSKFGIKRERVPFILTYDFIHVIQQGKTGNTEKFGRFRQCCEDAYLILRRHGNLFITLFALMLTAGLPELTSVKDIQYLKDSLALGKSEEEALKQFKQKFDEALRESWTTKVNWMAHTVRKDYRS
# Sequence (P27986 whole entry partner): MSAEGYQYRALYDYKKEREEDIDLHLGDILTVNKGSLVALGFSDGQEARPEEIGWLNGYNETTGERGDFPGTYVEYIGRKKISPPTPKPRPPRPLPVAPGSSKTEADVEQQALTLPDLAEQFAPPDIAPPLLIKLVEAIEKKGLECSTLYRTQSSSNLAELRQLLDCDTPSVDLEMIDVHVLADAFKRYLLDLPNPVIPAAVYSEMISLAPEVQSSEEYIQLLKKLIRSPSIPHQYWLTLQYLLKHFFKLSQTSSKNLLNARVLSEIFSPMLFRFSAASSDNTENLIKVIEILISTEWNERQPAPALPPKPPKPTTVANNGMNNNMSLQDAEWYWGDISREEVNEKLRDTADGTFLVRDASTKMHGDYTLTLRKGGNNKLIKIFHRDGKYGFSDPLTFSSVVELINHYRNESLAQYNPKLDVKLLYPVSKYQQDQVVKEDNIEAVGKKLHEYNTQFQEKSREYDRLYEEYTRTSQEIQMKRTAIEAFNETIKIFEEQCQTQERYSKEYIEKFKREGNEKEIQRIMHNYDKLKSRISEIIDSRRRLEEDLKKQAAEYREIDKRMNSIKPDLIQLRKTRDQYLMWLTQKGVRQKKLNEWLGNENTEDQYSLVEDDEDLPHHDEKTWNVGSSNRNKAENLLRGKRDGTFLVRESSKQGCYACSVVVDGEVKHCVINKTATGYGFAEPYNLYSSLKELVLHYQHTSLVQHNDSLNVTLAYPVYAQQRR
# method.summary: Human PI3K beta enzyme assay (HTRF, as for PI3K alpha)
# Assay type: biochemical
# run.conditions: at 1.11 μM; read-out: PI3Kbeta % inh
observation.type: inhibition at 1.11 µM (%)

Below, 5 compounds whose answers are already recorded.
I am curious: what inhibition at 1.11 µM value has been reported for "CNC(=O)[C@H]1NC(=O)c2sc(N3CCOCC3)cc2[C@H]1c1ccc(Cl)cc1" ?
111

Name the recorded inhibition at 1.11 µM for C=CCN1C(=O)c2sc(N3CCOCC3)cc2C(c2ccc(Cl)c(Cl)c2)C1C(=O)OC (centres unmarked) .
69.2

Please give the measured inhibition at 1.11 µM for this compound: O/N=C1\CCC(c2ccc(Cl)cc2)c2cc(-c3ccncc3)sc21 (centres unmarked)
98.1

Tell me the measured inhibition at 1.11 µM of NC(=O)CN1CC(c2ccc(Cl)cc2)c2cc(N3CCOCC3)sc2C1=O (centres unmarked) , please.
110

Reported inhibition at 1.11 µM, compound O=C1NCC(c2ccc(Cl)c(Cl)c2)c2cc(N3CCOCC3)sc21 (centres unmarked) : ____
96.8

P = CC(C)NC(=O)[C@@H]1NC(=O)c2sc(N3CCOCC3)cc2[C@H]1c1ccc(Cl)cc1
Q = O=C1NCC(c2ccc(Cl)cc2)c2c1sc(N1CCOCC1)c2CO (single isomer, unassigned)
R = O=C1CC(c2ccc(Cl)cc2F)c2cc(N3CCOCC3)sc21 (centres unmarked)
Arrange these compounds by their inhibition at 1.11 µM, starting with the largest number. The response must list the labels following the requested ordering.
R, P, Q
(R: 101%, P: 70.6%, Q: 40.2%)

meta.source: patent US8765746B2
